ASSAY SYSTEM: HLA-A*30:02
ASSAY INFO: IEDB peptide-MHC binding, purified MHC/competitive/radioactivity; filed as Kd, often an IC50 or EC50 that approximates it; bounds were set here for any values at or beyond the usual limits of such assays
SETUP CONDITIONS: source organism: Lymphocytic choriomeningitis virus (strain Armstrong)
EXPERIMENTAL READOUT: pKd
Scale explanation: pKd corresponds to minus log10 of a concentration expressed in moles per litre.

Name the reported pKd value associated with the sequence AFKVPGVKTV 5.18

---

ASSAY SYSTEM: HLA-B*15:42
ASSAY INFO: IEDB peptide-MHC binding, purified MHC/competitive/fluorescence; filed as Kd, often an IC50 or EC50 that approximates it; bounds were set here for any values at or beyond the usual limits of such assays
SETUP CONDITIONS: source organism: Clostridium novyi NT
EXPERIMENTAL READOUT: Kd

Give its Kd value. Item: ASMDNTSPM ≥ 5 µM
